test system: MS2 coat protein; assay: apparent Kd, MS2 coat protein; higher = weaker binding; RNA-MaP array; FMN 200 µM where present; conditions: ligand present: flavin mononucleotide; designed as: OFF switch for flavin mononucleotide
apparent Kd vs 70 nM: at or above is True, below is False.

sequence.input	target.desc	cat
GGAUCGAGUGUGAGGAUAUGCUGGUCCUUGGAUCAGCAGAAGGCACAUGAGGAUCACCCAUGUGAAAACGGUCC	MS2 coat protein	True
UCAGGCUUCGAGAAGGACAUGAAUCGUAGCAUUGCUACGAUCAUAGAUACAUGAGGAUCACCCAUGUAGGAUAUCGGAGUCUGC	MS2 coat protein	False
GGUUGGCGAGGAUAUACAUGAGGAUCACCCAUGUGGUCCUGUGGCUGAUCUUGCCUUUGUAGAAGGCGCGGAUC	MS2 coat protein	False
GUCCGGCGUGUAGGAUAUGGAUCCGAUUAGGAUCCAGAAGGACAUGAGGAUCACCCAUGUACAUGUAAACAGUCAUCACCGGAG	MS2 coat protein	False
UCAUCGUGAGGAUAUUAUCGUAAGUGCAGGGUCUGACUUAGUAAGAAGGCACAUGAGGAUCACCCAUGUCCCUC	MS2 coat protein	False
CAACUGUGAGGAUAUGGUGAGUAGUGCCUGAGCGCUGCUCACCAGAAGGCACAUGAGGAUCACCCAUGUAUAAC	MS2 coat protein	True
GGGUAACAUGAGGAUCACCCAUGUGAGGAUAUCCUAGGGAUGGAAGCCCGGCCAACCAGGAGAAGGUACUAAAG	MS2 coat protein	True
UACGGACAUGAGGAUCACCCAUGUGAGGAUAUCGGUACCGAUAGCAUAAUAUAAUCGGCGAGAAGGCACAGCGU	MS2 coat protein	False
CGUAUGUAAGGAUAUAGCCACAUUACGAAUAAGUAGUGUGGCUAGAAGGUACAUGAGGAUCACCCAUGUAUGGG	MS2 coat protein	True
AACUCGUCAGGAUAUGCGCGCAGAUAAUACGCUUCGCAAUUGCAGAAGGGACAUGAGGAUCACCCAUGUAAAUA	MS2 coat protein	False
ACAUUCACUCGACUGGUUCUUAACAUGAGGAUCACCCAUGUAGAGGAUAUAGGAAUUCUGGGUUCCUAGAAGGCUACGUGAGUG	MS2 coat protein	True
UGAUAGGACAGAGGAUAUGCCGAUAGGAUCUAUUAUCGAAGAAUCCUCACAUGAGGAUCACCCAUGUAGAAGGCUGUCCUAUCU	MS2 coat protein	False
UCCUCUGUAUGAGGAUAUCCGAAUACGUGAGGCGCUGCCGGCUCAUCAUCAGGAGAAGGCAUACAUGAGGAUCACCCAUGUCGA	MS2 coat protein	False
AUCAGCUCGUCAGGAUAUACGUCACUGCGUCAGCAGUGUGGUCAGAUCACAUGAGGAUCACCCAUGUAGAAGGGACGAGCUGAU	MS2 coat protein	True
GCUGGACAAGGAUAUACAAUCGUGCUUCGGCACGUAAGGUCACAUGAGGAUCACCCAUGUAGAAGGUGUCCAGC	MS2 coat protein	True
CCUAGUUGGUAAGGAUAUCCUACACUGUUCUGACCCGUGCAAGCUACAUGAGGAUCACCCAUGUGGGAGAAGGUGCGUCGACGC	MS2 coat protein	False
UAUAUAUAGUAAGGAUAUGUAUUAAUUGUAUAAACAGAAGGUACUGACAUGAGGAUCACCCAUGUUUUAGUGUGGGCAUGUAGA	MS2 coat protein	True
UUUUCACAUGAGGAUCACCCAUGUGAGGAUAUGGUUUCGCUGGCCGUAGCCAGUGGAACCAGAAGGCGCGUGAU	MS2 coat protein	False
AUCAGCUCGUCAGGAUAUACGUCACUGCGUCACCAGUGUGGUAAGAUCACAUGAGGAUCACCCAUGUAGAAGGGACGAGCUGAU	MS2 coat protein	True
GUGGUGCAUAUACGUGGAUGUACAUGAGGAUCACCCAUGUAAGAGGAUAUGCGGAUACUAGCUCAGCAGAAGGCUUACAAAUGC	MS2 coat protein	False
CUUAUUUGAGGAUAUACGUCACCGUCUUCAUGAGUUCAAAUACAUGAGGAUCACCCAUGUAGAAGGCAAUUACU	MS2 coat protein	False
CCCUCACAUGAGGAUCACCCAUGUCAGGAUAUUCGAACGGUGUGUUUUUGGCCAGUUGGAAGAAGGGACAUAAA	MS2 coat protein	True
GUCAGCUCGUGAGGAUAUACAACACUGCUUCGGCAGUGUAUUAAGAUCACAUGAGGAUCACCCAUGUAGAAGGCACGAGUUGAU	MS2 coat protein	True
GGAUAGGACAGAGGAUAUACGUGCUAGAGAUACUAGCAAAAUUUCCUCACAUGAGGAUCACCCAUGUAGAAGGCUGUCCUUUCG	MS2 coat protein	True
UGUCGGAGCAGAGGAUAUUACAUGAGGAUCACCCAUGUAUGAACCAAUAGCCGGAAACAGCAAUGUAAGAAGGCUGCUCCGACA	MS2 coat protein	False
AAUAUGUUGCAGAAGGUUAUAUUUUUUUAGUACCUCAUGACAUGAGGAUCACCCAUGUUUUUGUUGAAGGAUAUGCAAUAUAUU	MS2 coat protein	False
CUUUUGUGAGGAUAUCAGUAGUUAAAUAAUAAAAUUACUACUGAGAAGGCACAUGAGGAUCACCCAUGUUCCUC	MS2 coat protein	True
CAUUAAUUCAUUAUAGUAAUUAUACAGGAUAUGUUACAUGAGGAUCACCCAUGUAUUCAUGGUAAACAGAAGGGUAAUACUAGA	MS2 coat protein	False
UUAAUUUGAUGAUAUUAUGACAUUAGAAGGCUGUACAUGUUGAUACAUGAGGAUCACCCAUGUAUAGAGGAUAUAGACAAUUUU	MS2 coat protein	True
